assay: PBMC cell counts (total, live, viability; trypan blue, Countess) with and without LPS and test articles (Example 9); assay type: cell-based, human; conditions: human, PBMCs, PBMC + compound 1 uM, no LPS; 24 hr
Where a SMILES comes first, the peptide text is derived from it. [ ]: non-standard residue; d: D form. Hyp = O=C(O)[C@@H]1C[C@@H](O)CN1
Measure name: viability at 24 h, 1 µM (%)
Form entry: value (%) — number only.

Lookup: State its viability at 24 h, 1 µM for this molecule: CC(C)C[C@H](NC(=O)CNC(=O)[C@H](CC(=O)O)NC(=O)[C@H](CCC(N)=O)NC(=O)CNC(=O)[C@@H]1C[C@@H](O)CN1)C(=O)N[C@@H](C)C(=O)NCC(=O)N1CCC[C@H]1C(=O)N[C@@H](CCCCN)C(=O)O [YY-101] (H-[Hyp]GQDGLAGPK-OH; N-terminus and C-terminus assumed)
Found: 89.5

meta.source: patent US20230146455A1
